test system: UO-31; assay: NCI tumour cell line growth inhibition, 48 h
Active and inactive are the calls of the source. Rule as the data show it: active = GI50 up to about 1.1 µM and inactive = higher.
Answer each item with its documented GI50.

Completed entries (count: 3):
Cc1cc(-n2c(/C=C/c3ccc(Cl)cc3)nc3cc(Cl)ccc3c2=O)on1 | 3.61 µM (inactive)
CCOC(=O)N1CCc2cc(OC)c(OC)c3c2C1CC3=O (stereo not drawn) | > 100 µM (inactive)
Nc1ccc(C(=O)O)c2[nH]c3ccccc3c(=O)c12 | > 100 µM (inactive)

Would you mind listing GI50 for each of the following compounds?
1. O=S(=O)(OI(O)CC(F)(F)F)C(F)(F)F
2. CCCC(N)C(=O)c1ccccc1 (stereo not drawn)
3. CCCCCCC/C=C1\CCC(CN(C)C)C1=O (stereo not drawn)
4. Cc1cccc(Nc2cn(COCc3ccccc3)c(=O)[nH]c2=O)c1
5. COc1ccccc1C1C(C(=O)O)=C(CO)Oc2cc3c(cc21)OCO3 (stereo not drawn)

Outgoing:
["> 100 µM (inactive)", "> 100 µM (inactive)", "15.6 µM (inactive)", "> 100 µM (inactive)", "> 100 µM (inactive)"]

---

system: COLO 205; assay: NCI tumour cell line growth inhibition, 48 h
Calls of active or inactive are those of the source. No stated cut-off is given here; in the data, active = GI50 up to about 1.1 µM and inactive = higher.
Hi! Could you answer with just one of these? 1 = active, 0 = inactive

Please review the following examples before continuing.
O=C1NCc2ccccc2S(=O)(=O)n2cccc21 | 0
O=C1N=C(Nc2ccccc2Cl)N/C1=C\c1ccc(Cl)cc1Cl | 0
Nc1ccc(C(=O)O)c2[nH]c3ccccc3c(=O)c12 | 0

Incoming: Tell me the recorded outcome of this test for NS(=O)(=O)c1ccc(NC(NC(=O)C(C(F)(F)F)C(F)(F)F)(C(F)(F)F)C(F)(F)F)cc1 .
Outgoing: 0

Incoming: Tell me the recorded outcome of this test for NC(=O)OCC1=C(COC(N)=O)C(=O)c2c(O)ccc(O)c2C1=O .
Outgoing: 0

Incoming: Tell me the recorded outcome of this test for CC(=S)N/C=C1/C(=O)C=C(C)OC1=O .
Outgoing: 0

Incoming: Tell me the recorded outcome of this test for Nc1c2ccccc2nc2ccc(C(=O)Nc3ccc(S(N)(=O)=O)cc3)cc12 .
Outgoing: 0

Incoming: Tell me the recorded outcome of this test for CC(=O)OC[C@]1(C(=O)C(O)c2ccoc2)[C@H](C)CC[C@@]23COC(=O)C2=CCC[C@@H]31 (stereo partly drawn) .
Outgoing: 0

---

system: SK-MEL-28; assay: NCI tumour cell line growth inhibition, 48 h
Calls of active or inactive are those of the source. Cut-off read from the data, not from the text of the source: active = GI50 up to about 1.1 µM and inactive = higher.
Answer each item with its documented GI50.

C#CCCCC(=C)C[C@@H]1OC(=O)[C@H](C)[C@@H]1O | > 100 µM (inactive)
CCCOC(=O)CCC(NC(=O)c1ccc(Nc2nc3ccccc3nc2-c2cccs2)cc1)C(=O)OCCC (stereo not drawn) | > 100 µM (inactive)

Consider the additional compound presented here.
Incoming: Need GI50 of C[N+](C)(N)c1nc(N)c(C#N)c(C#N)c1C#N , thanks.
Outgoing: > 10 µM (inactive)

---

tested on: COLO 205; assay: NCI tumour cell line growth inhibition, 48 h
The source made the active and inactive calls. Cut-off read from the data, not from the text of the source: active = GI50 up to about 1.1 µM and inactive = higher.
Hi! Could you answer with just one of these? active, inactive

Please review the following examples before continuing.
CC(C)C1=CC23CCC4C(C)(C(=O)O)CCCC4(C)C2CC1C1C(=O)N(c2ccc(Cc4ccc(N5C(=O)C6C7CC8C9(C)CCCC(C)(C(=O)O)C9CCC8(C=C7C(C)C)C6C5=O)cc4)cc2)C(=O)C13 (stereo not given) | inactive
O=C(O)CCC1(CCC(=O)O)CCCCCCCCC(CCC(=O)O)(CCC(=O)O)C(=O)C1=O | inactive
O=C1c2ccccc2N2OC3(N4CCCC4)CCCC3C12c1ccccc1 (stereo not given) | inactive

Moving on to the next compound.
Incoming: Tell me the recorded outcome of this test for CC(=O)O[C@H]1C[C@H](O[C@H]2[C@@H](O)C[C@H](O[C@H]3[C@@H](O)C[C@H](O[C@H]4CC[C@@]5(C)[C@H](CC[C@@H]6[C@@H]5CC[C@]5(C)[C@@H](C7=CC(=O)OC7)CC[C@]65O)C4)O[C@@H]3C)O[C@@H]2C)O[C@H](C)[C@H]1O[C@@H]1O[C@H](CO)[C@@H](O)[C@H](O)[C@H]1O .
Outgoing: active

---

test system: COLO 205; experiment: NCI tumour cell line growth inhibition, 48 h
Active and inactive are the calls of the source. No stated cut-off is given here; in the data, active = GI50 up to about 1.1 µM and inactive = higher. Where a SMILES comes first, the peptide text is derived from it. [ ]: non-standard residue; d: D form. The star is where a group is joined. ξ: configuration not given here. ξF = NC(Cc1ccccc1)C(=O)O; Cbz = O=C(OCc1ccccc1)*; Aib = CC(C)(N)C(=O)O
Answer each item with its documented GI50.

C/C(CC1C2CCCC1C2)=N\NC(N)=O (stereo unspecified) | > 100 µM (inactive)

Would you mind listing GI50 for each of the following compounds?
1. CC[C@@]1(O)C(=O)OCc2c1cc1n(c2=O)Cc2c-1nc1ccccc1c2/C=N\NC(=O)C(N)=O
2. Cc1cc(O)nc2c3c(ccc12)OC(C)(C)C=C3
3. CCCCc1ccc(-n2c3nc(=O)n(C)c(=O)c-3nc3ccccc32)cc1
4. Brc1sc(Br)c2c1[C@H](Br)C[C@@H]2Br
5. Cc1nc(Nc2ccc(Cl)cc2)sc1C(=O)NNC(=S)NN
6. COC(=O)C(C)(C)NC(=O)C(Cc1ccccc1)NC(=O)C(C)(C)NC(=O)OCc1ccccc1 (stereo unspecified) (Cbz-[Aib]-[ξF]-[Aib]-OMe)

Outgoing:
1. > 50.1 µM (inactive)
2. 2.89 µM (inactive)
3. 3.09 µM (inactive)
4. 53.6 µM (inactive)
5. 21.6 µM (inactive)
6. > 100 µM (inactive)

---

test system: COLO 205; assay: NCI tumour cell line growth inhibition, 48 h
Calls of active or inactive are those of the source. Rule as the data show it: active = GI50 up to about 1.1 µM and inactive = higher.
Answer each item with its documented GI50.

Cc1ccc2c(c1)C1(OC(=O)c3ccccc31)c1ccc(F)cc1O2 (centres undefined) | 38.7 µM (inactive)
COC(=O)Cc1cc(O)c(C/C=C(\C)CC/C=C(\C)C(O)C(=O)C=C(C)C)cc1O (centres undefined) | 24.8 µM (inactive)
CC1=C(C(=O)Nc2c(C)cccc2C)C(c2ccc3c(c2)OCO3)C(C(=O)Nc2c(C)cccc2C)=C(C)N1 | 21.9 µM (inactive)

Consider the additional compound presented here.
Incoming: Need GI50 of CCOC(=O)/C(=C/c1cccc(OC)c1)N(CC)CC , thanks.
Outgoing: > 100 µM (inactive)

The measurements presented in this section are drawn from ChEMBL document CHEMBL1201862.
